# System: K4 kissing-loop RNA reporter
# protocol_summary: apparent KD of K4 kissing-loop reporter; higher = weaker reporter binding
# condition_parameters: Eterna round: R107; input ligand: tryptophan 2.4 mM
readout_type: apparent KD of K4 kissing-loop reporter (µM)
Numbers only, in µM.

Worked examples, 3 sequences total:
UGGGAUGUUAAAGGAUAUAGCAGAUGAUACAAGAAAGUGAGUGAUGUUUAUGUAGAUGAUGAUAUGUUAGAAGGUUAACAAAACG [abcdefghijk]
0.544
AACACUCACGGAGUGAUGUUCUGGAAUAAACGAGGACCGGUACGGCCGCCACUCGAAAAUGAGUGAGUCCUACGAAAAGUAGGAC [Omei inspired 4]
0.108
UUUUGCUAGCGAAACGCUAGCUUAACAGAUACCAGUCGCGAAAGCGACCCUUGGCAGCUGCUGAGUGAUGUUCAGGUGAGAGUUA
0.312

// each listed sequence needs a value for apparent KD of K4 kissing-loop reporter
1. UGACACUCAACGGCCGCCACUACCGUCGCCGAAUUCCGCAGUGAUGUUGCGAUCCUCCGAUUGUCUAGGACCGGGUUGUUUGGGC [theeternabot_exclusion_KL_Trp_B_43]
2. GGGUUUGCCGGAAGGAGCGCACUAUGGAGUGAUGUUCCAUGACCGCACAGCUUGCGGUCAGUGCAGGUAGGUCGCCGGUAGCGUU [Maedzaus]
3. AAAAUAAAGCAGUGAUGUUGCUUAUGAGAAGGAGCGCACGAAAGUGCAGGUAGGUCGCUCAGCCAAGUGGACGAAAACGUCCACA [#OpenEnded 10 #K4Early]
4. AAGUGAUGUUGUAGUGAUGUUGUGAUGUUGCAGGAUAUAUAGUGAUGUAGAAGGGUAUGUGCAGUUUUUUUUUUUGAGUGUUGAU [dpdmullin]
5. CGCGCGCGUUUGAGAGGGUGCGCGCGAAGUGAGGAUAUUUAGGGAGAAAGAAGGCACUAUAAAAUAUAGUGAUGUUAUAUAAGGG [SSFMNA.G]
6. UUAUAUACGAGUGAUGUUCGUUAUUUAUCAGAGGAUAUGCUUAAAUGCAGAAGGCUGUAUUUCUAUUUGAUAUUAAAUUUUAUAA [JR_Nu3_ExcFMNA_Sub026]
7. UGAGGAGAGGGAAGGAGCGUGAAAGAGAAAGAAUAUAGUGAUGUUAUAUAGAAGAAAGAAUCACAGGUAGGUCGCCCGGAGGAGG [SSArgB.B]
8. UGCCCGCGCGAAGGAUAUGAGAGCUUGUCUGUCCAGUGAUGUUGGAGGUUGGUGAUUUGCUAGGCGUCAGAAGGUCGAGCUUAUA [theeternabot_sameState_KL_FMN_B_14]

-- reply
0.162
0.179
0.0904
0.061
0.344
0.0573
0.284
0.133

-- ask Field request: apparent KD of K4 kissing-loop reporter | item: CGUUUAUAGCAGGAUACCAGUACCCAUUAUGUACGUUAAUAGUAGAGUGAUGUUCUAAAGUACCCUUGGCAGCUUCCCGUGACCC [ExTheophylB.Y]
-- reply 0.0947

====

# Tested on: MS2 coat protein
# protocol_summary: apparent KD of MS2 coat protein; higher = weaker reporter binding
# condition_parameters: Eterna round: R107; input ligand: tryptophan 2.4 mM
readout_type: apparent KD of MS2 coat protein

UCUCGGUCUUUCUUUCUCCGAGAAUAUGAUACCAGUUAGUUUUAUGGCCCUUGGCAGCAUAGAACAUGAGGAUCACCCAUGUGUU [SSThA NP+V+V2 #9 +-Same Structure]
96.5 nM
GGGCCCGGGCGCGAGCCCGGGCCCAUUGAUACCAGUGAUAUAUAACGCCCUUGGCAGCGAAUCCUAACAUGAGGAUCACCCAUGU [5.G]
37 nM
UCGCUCGCCGGAAGGCGAGCGAGUUGCGAUACCAGCCCGGAAACGGGCCCUUGGCAGCGCACAUGAGGAUCACCCAUGUCAUGUU [#1 Exclusion - Theophylline A Attempt #6 (HarryS)]
18.3 nM
UUAAUCGUGCAUGAUACCAGUAUCCGUAGAUACAUGAGGAUCACCCAUGUCUGGUUGGAAUACCCUUGGCAGCAUGGGUUGAGGA [theeternabot_sameState_MS2_Theo_B_20]
238 nM
UUGUACGAAACUGAUACCAGCCAGCAAUGCCACCAAGAGCACAUGAGGAUCACCCAUGUUGGCCCUUGGCAGCAGGACAAUAAGC [theeternabot_exclusion_MS2_Theo_B_3]
8.91 nM

Next up:
-- ask Field request: apparent KD of MS2 coat protein | item: UCUUGAGUUUCGGAUACCAGUGAUGUCGAUACAUGAGGAUCACCCAUGUUAGAGGAUGUACACCCUUGGCAGCCGGGUGUGGCGG [wswmullin]
-- reply 44.9 nM

====

Would you kindly list apparent KD of K4 kissing-loop reporter for each of these sequences?
# Tested on: K4 kissing-loop RNA reporter;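 further: bound reporter read as fluorescence of individual clusters on recovered sequencing chips by microscopy, with normalized cluster intensities fitted with a binding model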
# protocol_summary: apparent KD of K4 kissing-loop reporter; higher = weaker reporter binding
# condition_parameters: Eterna round: R107; input ligand: none
Give bare numbers, in nM.

Worked examples, 3 sequences total:
UCUCAGGAGUGAUGUUCCGUAGGUGGAAGGAAGGAUAUCUAAUGGCAGAGAAGGUCCAUCCUUGCUCGUAUCAGUGCCGGGAAGC [theeternabot_exclusion_KL_FMN_A_13]
232
GCCGCAAGGAUAGCAGCAAUAGGCGCUCGCUAGGAUAUCUGGAAACAGAGAAGGAGCUGGAGUGAUGUUUUACCUCCUAAAAUUA
682
CGCCGGAAGGCGGUCGCUCCCACUCCGGAAGGAGCGCCCGGAAGGGCAGGUAGGUCGCCGGAGUGAUGUUCCGGUGGAGGGACCG [#2 Exclusion - Arginine A Attempt #10 (Inspired by Omei)]
113

// each listed sequence needs a value for apparent KD of K4 kissing-loop reporter
1. GGAUAGGAUAGAGGAUAUGGCUUACACAGAAAUAACUUGUUGUGUUUAUCCAUAGGGAGUGAUGUUCCAGAAGGCUGUCCUAUCG [MatMod 19 - Jieux - Exclusion - FMN B]
2. GCAGUGAUGUUGCGGAUGUACAGUGGCGUGCGAGGACCGGUACGGCCGCCACUCGUACAGAACAAGCUAAUACAUCGAUAGGUGA [whbob_SS_Tryp_A_m1]
3. AAAAUAAACCAGUGAUGUUGGUGUCCGGAUACCAGCGAUAAUCAUCGCCCUUGGCAGCCGCGGACGUACAAAAUAAGUACGUCCU [MatMod 13 - Jieux - Same State - Theophylline A]

-- reply
1. 210
2. 556
3. 346

====

Would you kindly list apparent KD of MS2 coat protein for each of these sequences?
# Test system: MS2 coat protein
# protocol_summary: apparent KD of MS2 coat protein; designed switch direction (-1 OFF switch, 1 ON switch): -1; higher = weaker reporter binding
# condition_parameters: input ligand: none
Numbers only, in nM.

Worked examples, 8 sequences total:
ACUUUUUGAGGAUAUACAUUGAUUAACAUGAGGAUCACCCAUGUACAAACAUGUAUUUGUGUAGAAGGCAGAAGAA [JR_Ex5_Sub068] (Eterna round: R97, puzzle: Exclusion 5)
13.2
AUCCGUAGGCGCACCUCACACAUGAGGAUCACCCAUGUGCCCUACAAUCGCAAGCUGUGCUCGUUGCUGGUCCCUAC [Eternabot (L1) Solution 16] (Eterna round: R97, puzzle: Sensor, turn-off variant 1)
48.5
GAGUGCUGAGGAUAUACAUGAGGAUCACCCAUGUGCUUCAGCUAGGAGACUAGCAUCCGUAGAAGGCAGUACUC [Mod of lroppy 24 - Jieux - Exclusion 3] (Eterna round: R97, puzzle: Exclusion 3)
14.3
AAUAGUCGGUAGGAUAUCCACGGAUGACCGGCAGGAGAAGGGCCGACUUGAGGAUCACCCAAGUAUGGUCCUAA [Texeonxe] (Eterna round: R97, puzzle: Exclusion 6)
14.5
UAACAUGUAGAAGGAUAUCUGCACGAUUAGUGCAGAGAAGGUCUAACAUGAGGAUCACCCAUGUAGAUCAUUAAUUAAUUAAUU [ENG1/8-B1] (Eterna round: R96, puzzle: Exclusion NG 1)
12.4
AGGUGCUUCUGGAGACAUGAGGAUCACCCAUGUUGAGUUAGCGAGGAUAUCGGUAAGGCAUGUGAUGAGAAGGCGCAAACCGAU [Ex NG3 #49] (Eterna round: R96, puzzle: Exclusion NG 3)
49.5
UUACUGUGAGGAUAUUACAUUUAGCGGCUAGCAACUAGGGAUAAGAAGGCACAUGAGGAUCACCCAUGUCCCGU [Eternabot (L1) Solution 35] (Eterna round: R97, puzzle: Exclusion 4)
21.5
CUGGUUGUCGAGGAUAUGCACCAGCUCACUGACGCAGAAGGCGACACAUGAGGAUCACCCAUGUCGGUUCGCGU [salish99_ex6_r004_436] (Eterna round: R97, puzzle: Exclusion 6)
28.2

-- ask Field request: apparent KD of MS2 coat protein | item: UACCUGUAGGUAGGAUAUCAUUGCGAUUAGCUAUGAGAAGGACCACAUGAGGAUCACCCAUGUCUACUCAGGAACCGAAAGGUC [Fiskers ExNg1 - 1] (Eterna round: R96, puzzle: Exclusion NG 1)
-- reply 17.3
